These measurements were taken from PubChem BioAssay AID1159580.

# Method Summary: chemical genetic growth profiling, strain panel (AID 1159580);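 note: tested at 20 µM; growth read once vehicle control cultures reached saturation at 30 °C; 1 = growth at the plate median or of vehicle wells; lower values mean less growth of the strain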
# Condition Label: S. cerevisiae deletion strains, growth OD, locus YMR058W, strain fet3
Hit rate of the full screen: of about 5,500 compounds, about 2,000 (36%) were called active. Not shown: some 18% with an inconclusive outcome. Cut-off read from the data, not from the text of the source: active = normalized growth mostly below about 0.91 (no sharp cut-off); inconclusive = no clear call, values can overlap the other calls; inactive = mostly above about 0.92. The list shows a part of the results.
Respond using exactly one of the listed classes: active, inactive

Consider the worked cases shown below.
INSERT INTO results (compound, discrete_label) VALUES
  ('CNC(=O)Oc1ccccc1OC(C)C', 'inactive'),
  ('Oc1cccc2cccnc12', 'active'),
  ('Cn1c(=O)[nH]c2nc[nH]c2c1=O', 'inactive'),
  ('CNC(C)(C)Cc1ccccc1', 'inactive'),
  ('O=C1c2ccccc2C(=O)c2ccccc21', 'inactive');

Now consider the entry below.
Inquiry: What did the test return for CC(=O)CCCCn1c(=O)c2c(ncn2C)n(C)c1=O ?
Reply text: inactive

###

# Method Summary: chemical genetic growth profiling, strain panel (AID 1159580)
# Condition Label: S. cerevisiae deletion strains, growth OD, locus YGL227W, strain vid30
In all, about 5,500 compounds went through this assay and about 2,000 (36%) were called active. About 18% were inconclusive and are not listed. Cut-off read from the data, not from the text of the source: active = normalized growth mostly below about 0.91 (no sharp cut-off); inconclusive = no clear call, values can overlap the other calls; inactive = mostly above about 0.92. The list shows a part of the results.
Respond using exactly one of the listed classes: Yes for active, No for inactive

Inquiry: What did the test return for CO/N=C(/C(=O)NC1C(=O)N2C(C(=O)OCOC(=O)C(C)(C)C)=C(/C=C\c3scnc3C)CSC12)c1csc(N)n1 (centres undefined) ?
Reply text: No

Inquiry: What did the test return for C[C@H]1C(=O)CCC2[C@]3(C)CC[C@@]4(C)C5CC(C)(C)CC[C@]5(C)CC[C@]4(C)C3CC[C@@]21C (some centres undefined) ?
Reply text: No

Inquiry: What did the test return for CC(=O)c1ccc[nH]1 ?
Reply text: No

Inquiry: What did the test return for COc1ccc(-c2c(O)c3c(OC)c4c(cc3oc2=O)OC(C)(C)C=C4)cc1 ?
Reply text: No

Inquiry: What did the test return for NC(Cc1ccc(Cl)cc1)C(=O)O (centres undefined) ?
Reply text: No

Inquiry: What did the test return for COc1cc(Cc2cnc(N)nc2N)cc(OC)c1OC ?
Reply text: No

Inquiry: What did the test return for O=C1c2ccccc2C(=O)c2ccccc21 ?
Reply text: No

Inquiry: What did the test return for CC(=O)NS(=O)(=O)c1ccc(N)cc1 ?
Reply text: No

Inquiry: What did the test return for CC(=CC1CCC(C)C2C1=C(C)CC2O)C(=O)O (centres undefined) ?
Reply text: No

###

# Method Summary: chemical genetic growth profiling, strain panel (AID 1159580)
# Condition Label: S. cerevisiae deletion strains, growth OD, locus YNL307C, strain MCK1 (second series)
Hit rate of the full screen: of about 5,500 compounds, about 2,000 (36%) were called active. Another 18% or so got no clear call; they are omitted. Cut-off read from the data, not from the text of the source: active = normalized growth mostly below about 0.91 (no sharp cut-off); inconclusive = no clear call, values can overlap the other calls; inactive = mostly above about 0.92. This is one part of the list.
Respond using exactly one of the listed classes: Yes (active), No (inactive)

INSERT INTO assay_data (compound, discrete_label) VALUES
  ('COc1ccc(OC)c2nc3c(nc12)C(=O)c1ccccc1-3', 'No'),
  ('CCOC(=O)c1ccc(N=Cc2cc(Cl)cc(Cl)c2O)cc1', 'Yes'),
  ('O=C(NCc1ccc2c(c1)OCO2)c1cc2ccccc2s1', 'Yes'),
  ('O=S(=O)(Nc1c(F)cccc1F)c1ccc(Cl)c(Cl)c1', 'No'),
  ('CC1SC(c2cccnc2)N(c2ccc(F)cc2F)C1=O (stereo not drawn)', 'No'),
  ('CC1SC(c2cccnc2)N(c2ccc(Cl)cc2)C1=O (stereo not drawn)', 'Yes');

Inquiry: What did the test return for O=C(Nc1cc(Cl)cc(Cl)c1)c1cc(Cl)ccc1O ?
Reply text: Yes

Inquiry: What did the test return for CC(C)Sc1c(Cl)cccc1NC(=O)Nc1cccc(C(F)(F)F)c1 ?
Reply text: No

Inquiry: What did the test return for COc1ccc(Oc2ccc([N+](=O)[O-])cc2C(=O)O/N=C(/N)c2ccc(C(F)(F)F)cc2)cc1 ?
Reply text: No

Inquiry: What did the test return for Cc1cc(N=Cc2cc(Cl)cc(Cl)c2O)no1 ?
Reply text: Yes

Inquiry: What did the test return for COC(=O)c1cccc(NS(=O)(=O)c2ccc(Cl)c(Cl)c2)c1 ?
Reply text: No

Inquiry: What did the test return for O=C(Nc1ccc(F)cc1F)c1cc(Cl)ccc1O ?
Reply text: No

Inquiry: What did the test return for Cc1cc(Sc2c([N+](=O)[O-])cc(C(F)(F)F)cc2[N+](=O)[O-])c(Cl)cc1Cl ?
Reply text: No

Inquiry: What did the test return for O=C(Nc1ccccc1Sc1ccc(C(F)(F)F)cc1[N+](=O)[O-])C(Cl)Cl ?
Reply text: No

Inquiry: What did the test return for COc1cc(C2CC(=S)Nc3ccccc3S2)cc(OC)c1OC (stereo not drawn) ?
Reply text: No

Inquiry: What did the test return for Cn1cc(Br)c(-c2cccc(NS(=O)(=O)c3ccc(Cl)cc3)c2)n1 ?
Reply text: No

Inquiry: What did the test return for CCOC(=O)c1cnc(-c2ccccn2)[nH]c1=O ?
Reply text: No

Inquiry: What did the test return for CC(C)OC(=O)Nc1cc(Cl)cc(Cl)c1 ?
Reply text: No

###

# Method Summary: chemical genetic growth profiling, strain panel (AID 1159580);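 note: tested at 20 µM; growth read once vehicle control cultures reached saturation at 30 °C; 1 = growth at the plate median or of vehicle wells; lower values mean less growth of the strain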
# Condition Label: S. cerevisiae deletion strains, growth OD, locus YLR262C, strain YPT6 (second series), hits give low values
The whole screen tested about 5,500 compounds, of which about 2,000 (36%) were called active. Inconclusive results (about 18%) are left out. This is one part of the list.
// reported normalized growth for each item listed
Lab note: jot down the number only; don't add units.

Inquiry: # normalized growth lookup, item O=C(O)C1=C(CSc2nnnn2CS(=O)(=O)O)CS[C@@H]2C(NC(=O)[C@H](O)c3ccccc3)C(=O)N12 (some centres not stated)
Reply text: 0.98

Inquiry: # normalized growth lookup, item COC(=O)CC1C(C)(C(=O)c2ccoc2)CC2OCC34C(CC(=O)OC)C5(C)CC36OC3(C)OC1(C(OC(C)=O)C6(OC(C)=O)C5OC(=O)C(C)C)C24O3 (configuration not stated)
Reply text: 0.983

Inquiry: # normalized growth lookup, item CC(=O)CCCCn1c(=O)c2c(ncn2C)n(C)c1=O
Reply text: 1.01

Inquiry: # normalized growth lookup, item Cn1cnc2c1c(=O)[nH]c(=O)n2C
Reply text: 0.978

Inquiry: # normalized growth lookup, item COCC1=C(C(=O)OC(C)OC(=O)OC(C)C)N2C(=O)[C@@H](NC(=O)/C(=N\OC)c3csc(N)n3)[C@H]2SC1 (some centres not stated)
Reply text: 0.987

Inquiry: # normalized growth lookup, item CC(=CC1CCC(C)C2C1=C(C)CC2O)C(=O)O (configuration not stated)
Reply text: 1.02

Inquiry: # normalized growth lookup, item NC(Cc1ccc(Cl)cc1)C(=O)O (configuration not stated)
Reply text: 1.02

###

# Method Summary: chemical genetic growth profiling, strain panel (AID 1159580);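 note: tested at 20 µM; growth read once vehicle control cultures reached saturation at 30 °C; 1 = growth at the plate median or of vehicle wells; lower values mean less growth of the strain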
# Condition Label: S. cerevisiae deletion strains, growth OD, locus YPR111W, strain DBF20, hits give low values
In all, about 5,500 compounds went through this assay and about 2,000 (36%) were called active. Roughly 18% stayed inconclusive and do not appear here. Some of the results follow.
Property Name: normalized growth
Lab note: jot down the number only; don't add units.

The examples below pair each entry with its known result.
INSERT INTO measurements (compound, endpoint_value) VALUES
  ('COc1cc(C2SCCS2)cc(Br)c1OC(=O)NC(=O)c1c(Cl)cccc1Cl', 0.933),
  ('CCOC(=O)c1ccc(N=Cc2cc(Cl)cc(Cl)c2O)cc1', 0.955),
  ('Cc1csc2ncnc(N3CCN(C(=S)Nc4ccc(C(F)(F)F)cc4)CC3)c12', 0.978),
  ('Cc1cc(N=Cc2cc(Cl)cc(Cl)c2O)no1', 0.972),
  ('Cc1cc(C)c2cc(C(=O)NCCNc3ccc(C(F)(F)F)cn3)[nH]c2c1', 0.944);

Note: attention shifts to another entry.
Inquiry: # normalized growth lookup, item CC(=O)c1ccc(Sc2ccccc2)c([N+](=O)[O-])c1
Reply text: 0.838

###

# Method Summary: chemical genetic growth profiling, strain panel (AID 1159580);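 note: tested at 20 µM; growth read once vehicle control cultures reached saturation at 30 °C; 1 = growth at the plate median or of vehicle wells; lower values mean less growth of the strain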
# Condition Label: S. cerevisiae deletion strains, growth OD, locus YJL129C, strain trk1
The campaign covered roughly 5,500 compounds. About 2,000 (36%) were called active. Inconclusive results (about 18%) are left out. No stated cut-off is given here; in the data, active means normalized growth mostly below about 0.91 (no sharp cut-off); inconclusive means no clear call, values can overlap the other calls; inactive means mostly above about 0.92. This is one part of the list.
Respond using exactly one of the listed classes: YES = active, NO = inactive

Consider the worked cases shown below.
INSERT INTO assay_data (compound, discrete_label) VALUES
  ('NC(Cc1ccc(Cl)cc1)C(=O)O (centres undefined)', 'NO'),
  ('COc1ccc(-c2c(O)c3c(OC)c4c(cc3oc2=O)OC(C)(C)C=C4)cc1', 'YES'),
  ('CNC(C)[C@@H]1CC[C@@H](N)[C@@H](OC2[C@@H](N)C[C@@H](N)[C@H](OC3OC[C@](C)(O)[C@H](NC)[C@H]3O)[C@H]2O)O1 (some centres undefined)', 'NO'),
  ('COC(=O)CC1C(C)(C(=O)c2ccoc2)CC2OCC34C(CC(=O)OC)C5(C)CC36OC3(C)OC1(C(OC(C)=O)C6(OC(C)=O)C5OC(=O)C(C)C)C24O3 (centres undefined)', 'NO'),
  ('COc1cc([C@@H]2c3cc4c(cc3[C@H](O)[C@H]3COC(=O)[C@H]23)OCO4)cc(OC)c1OC', 'NO');

Inquiry: What did the test return for COC1=CC23CCCN2CCc2cc4c(cc2C3C1O)OCO4 (centres undefined) ?
Reply text: NO

Inquiry: What did the test return for COc1cc(OC)c2c(OC)c(-c3ccc4c(c3)OCO4)c(=O)oc2c1 ?
Reply text: NO

Inquiry: What did the test return for CC(=O)NS(=O)(=O)c1ccc(N)cc1 ?
Reply text: NO

Inquiry: What did the test return for O=c1c(O)c(-c2ccccc2)oc2ccccc12 ?
Reply text: YES
